# Tested on: 2Sb-muMax20 (muMax20 with two 1,3-bis(methyl)benzene Cys staples, A13C/A17C and Q88C/A92C, C-terminal Lys)
# Method description: PBM 8-mer E-score (E-score (rank enrichment, -0.5 to 0.5)); higher = stronger preferential binding
In all, about 33,000 sequences were measured (“E-score (rank enrichment, -0.5 to 0.5)”: median about -0.0028, highest 2% from about 0.23 on). This excerpt belongs to a sample that is enriched for the highest values.
Threshold check on PBM 8-mer E-score: at or above -0.04 gives 1, strictly below gives 0.

Use the examples below as a reference point.
   macromolecule_sequence  class_name
0                ACCCAAAT           1
1                ATATGGGC           1
2                ACCGCCGG           0
3                GACCTGGA           0
4                CACGAATA           1

Does CCCGCCCC have a reported PBM 8-mer E-score of at least -0.04?
1

Is it the case that GCACACAC has PBM 8-mer E-score reaching or exceeding -0.04?
1

Is the recorded value of PBM 8-mer E-score equal to or greater than -0.04 for this sequence? TCCTGGAA
0

Hi, just wondering whether AGGTGGAA shows PBM 8-mer E-score of -0.04 or higher.
1

Reported PBM 8-mer E-score at or above -0.04? CCCCCACA
0
